System: NCI-H1993
assay protocol: relative viability (nuclei count vs DMSO), 5 days (fraction); higher = more cells survive
condition label: first compound 0.8 µM
Readings of relative viability for the listed molecules
Reply briefly: the number, and no unit.

Sample answers from the record:
molecule	reported endpoint	quantitative result
O=c1cc(-c2cccc3c2Sc2ccccc2S3)oc(N2CCOCC2)c1 + CS(=O)(=O)N1CCN(Cc2cc3nc(-c4cccc5[nH]ncc45)nc(N4CCOCC4)c3s2)CC1 [Pictilisib] (partner 1 µM)	relative viability	0.894
O=c1cc(-c2cccc3c2Sc2ccccc2S3)oc(N2CCOCC2)c1 + COc1cc2c(Oc3ccc(NC(=O)C4(C(=O)Nc5ccc(F)cc5)CC4)cc3F)ccnc2cc1OCCCN1CCOCC1 [Foretinib] (partner 0.25 µM)	relative viability	0.586
COc1nc(C)cnc1NS(=O)(=O)c1cccnc1-c1ccc(-c2nnco2)cc1 [Zibotentan] + CC(=O)c1c(C)c2cnc(Nc3ccc(N4CCNCC4)cn3)nc2n(C2CCCC2)c1=O [Palbociclib] (partner 0.5 µM)	relative viability	0.537

Q) GET /values?readout=relative viability&item= COc1nc(C)cnc1NS(=O)(=O)c1cccnc1-c1ccc(-c2nnco2)cc1 [Zibotentan] + CC(C)C[C@H](NC(=O)[C@H](Cc1ccccc1)NC(=O)c1cnccn1)B(O)O [Bortezomib] (partner 0.002 µM)
A) 0.994

----------
System: BEN
assay protocol: relative viability (nuclei count vs DMSO), 5 days (fraction); higher = more cells survive
condition label: first compound 0.03162 µM
reported endpoint: relative viability
Form: value (number only, do not type unit).

// below: answered compounds
compound	reported endpoint	quantitative result
O=c1cc(N2CCOCC2)oc2c(-c3cccc4c3sc3ccccc34)cccc12 + Cc1nc(Nc2ncc(C(=O)Nc3c(C)cccc3Cl)s2)cc(N2CCN(CCO)CC2)n1 [Dasatinib] (partner 0.075 µM)	relative viability	0.362
O=c1cc(N2CCOCC2)oc2c(-c3cccc4c3sc3ccccc34)cccc12 + Cc1cc(Nc2cc(N3CCN(C)CC3)nc(Sc3ccc(NC(=O)C4CC4)cc3)n2)n[nH]1 [Tozasertib] (partner 0.1 µM)	relative viability	0.469

Q) Fill in the blank: the reported relative viability of O=c1cc(N2CCOCC2)oc2c(-c3cccc4c3sc3ccccc34)cccc12 + CCNC(=O)c1noc(-c2cc(C(C)C)c(O)cc2O)c1-c1ccc(CN2CCOCC2)cc1 [Luminespib] (partner 0.01 µM) is ____.
A) 0.359

Q) Consider the compound O=c1cc(N2CCOCC2)oc2c(-c3cccc4c3sc3ccccc34)cccc12 + C[C@]1(O)C[C@@H](c2nc(-c3ccc4ccc(-c5ccccc5)nc4c3)c3c(N)nccn32)C1 [Linsitinib] (partner 1 µM) and give its measured relative viability.
A) 0.916

----------
# relative viability annotations
Tested on: NCI-H1944
assay protocol: relative viability (nuclei count vs DMSO), 5 days (fraction); higher = more cells survive
condition label: first compound 8 µM

// below: answered molecules
molecule	result
O=c1cc(-c2cccc3c2Sc2ccccc2S3)oc(N2CCOCC2)c1 + Nc1nc2[nH]cc(CCc3ccc(C(=O)N[C@@H](CCC(=O)O)C(=O)O)cc3)c2c(=O)[nH]1 [Pemetrexed] (partner 0.2 µM)	0.698
O=c1cc(-c2cccc3c2Sc2ccccc2S3)oc(N2CCOCC2)c1 + CS(=O)(=O)CCNCc1ccc(-c2ccc3ncnc(Nc4ccc(OCc5cccc(F)c5)c(Cl)c4)c3c2)o1 [Lapatinib] (partner 2 µM)	0.998
O=c1cc(-c2cccc3c2Sc2ccccc2S3)oc(N2CCOCC2)c1 + CS(=O)(=O)N1CCN(Cc2cc3nc(-c4cccc5[nH]ncc45)nc(N4CCOCC4)c3s2)CC1 [Pictilisib] (partner 1 µM)	0.346

Q) Record request: relative viability value, item O=c1cc(-c2cccc3c2Sc2ccccc2S3)oc(N2CCOCC2)c1 + Nc1ncn([C@H]2C[C@H](O)[C@@H](CO)O2)c(=O)n1 [Decitabine] (partner 2 µM)
A) 0.468

Q) Which relative viability value is on record for O=c1cc(-c2cccc3c2Sc2ccccc2S3)oc(N2CCOCC2)c1 + O=C(CCCCCCC(=O)Nc1ccccc1)NO [Vorinostat] (partner 1 µM) ?
A) 0.596

Q) Can you look up the measured relative viability of O=c1cc(-c2cccc3c2Sc2ccccc2S3)oc(N2CCOCC2)c1 + C[C@]1(O)C[C@@H](c2nc(-c3ccc4ccc(-c5ccccc5)nc4c3)c3c(N)nccn32)C1 [Linsitinib] (partner 1 µM) for me?
A) 1.18

----------
Consider the following compounds and their measured relative viability readings.
Tested on: NCI-H522
assay protocol: relative viability (nuclei count vs DMSO), 5 days (fraction); higher = more cells survive
condition label: first compound 0.253 µM

Examples with their reported relative viability follow.
compound	relative viability
COc1nc(C)cnc1NS(=O)(=O)c1cccnc1-c1ccc(-c2nnco2)cc1 [Zibotentan] + CCNC(=O)c1noc(-c2cc(C(C)C)c(O)cc2O)c1-c1ccc(CN2CCOCC2)cc1 [Luminespib] (partner 0.01 µM)	1.02
O=c1cc(-c2cccc3c2Sc2ccccc2S3)oc(N2CCOCC2)c1 + N=C(N)NC(=N)NCCc1ccccc1 [Phenformin] (partner 250 µM)	0.689
COc1nc(C)cnc1NS(=O)(=O)c1cccnc1-c1ccc(-c2nnco2)cc1 [Zibotentan] + CC(=O)c1c(C)c2cnc(Nc3ccc(N4CCNCC4)cn3)nc2n(C2CCCC2)c1=O [Palbociclib] (partner 0.5 µM)	0.823

From here, focus on the item given below.
Q) Could you tell me which relative viability is on file for O=c1cc(-c2cccc3c2Sc2ccccc2S3)oc(N2CCOCC2)c1 + Cc1cc(Nc2cc(N3CCN(C)CC3)nc(Sc3ccc(NC(=O)C4CC4)cc3)n2)n[nH]1 [Tozasertib] (partner 0.1 µM) ?
A) 0.544

----------
Each entry below carries its recorded relative viability.
Test system: NCI-H3122
assay protocol: relative viability (nuclei count vs DMSO), 5 days (fraction); higher = more cells survive
condition label: first compound 0.03162 µM
Respond with the number and no other words.

Some compounds with recorded relative viability:
compound	reported endpoint	quantitative result
CCN(CC)CCCCNc1ncc2cc(-c3cc(OC)cc(OC)c3)c(NC(=O)NC(C)(C)C)nc2n1 + COc1cccc2cc(-c3nc([C@H]4CC[C@H](C(=O)O)CC4)n4ncnc(N)c34)[nH]c12 [OSI-027] (partner 0.5 µM)	relative viability	1.02
CCN(CC)CCCCNc1ncc2cc(-c3cc(OC)cc(OC)c3)c(NC(=O)NC(C)(C)C)nc2n1 + Cc1nc(NC(=O)N2CCC[C@H]2C(N)=O)sc1-c1ccnc(C(C)(C)C(F)(F)F)c1 [Alpelisib] (partner 2 µM)	relative viability	0.877

Please look at the following compound next.
Q) Missing value: relative viability, NCI-H3122, entry O=c1cc(N2CCOCC2)oc2c(-c3cccc4c3sc3ccccc34)cccc12 + O=C(CCCCCCC(=O)Nc1ccccc1)NO [Vorinostat] (partner 1 µM) . Fill in?
A) 1.02

----------
Tested on: NCI-H1793
assay protocol: relative viability (nuclei count vs DMSO), 5 days (fraction); higher = more cells survive
condition label: first compound 0.08 µM
Binary label based on relative viability with cut-off 0.7: below gives criterion met, not below gives criterion not met.

compound	tested target	class assignment
O=c1cc(-c2cccc3c2Sc2ccccc2S3)oc(N2CCOCC2)c1 + C[C@]1(O)C[C@@H](c2nc(-c3ccc4ccc(-c5ccccc5)nc4c3)c3c(N)nccn32)C1 [Linsitinib] (partner 1 µM)	NCI-H1793	criterion met
COc1nc(C)cnc1NS(=O)(=O)c1cccnc1-c1ccc(-c2nnco2)cc1 [Zibotentan] + Cc1nc(NC(=O)N2CCC[C@H]2C(N)=O)sc1-c1ccnc(C(C)(C)C(F)(F)F)c1 [Alpelisib] (partner 2 µM)	NCI-H1793	criterion not met
COc1nc(C)cnc1NS(=O)(=O)c1cccnc1-c1ccc(-c2nnco2)cc1 [Zibotentan] + CS(=O)(=O)CCNCc1ccc(-c2ccc3ncnc(Nc4ccc(OCc5cccc(F)c5)c(Cl)c4)c3c2)o1 [Lapatinib] (partner 2 µM)	NCI-H1793	criterion not met
O=c1cc(-c2cccc3c2Sc2ccccc2S3)oc(N2CCOCC2)c1 + Cc1cc(Nc2cc(N3CCN(C)CC3)nc(Sc3ccc(NC(=O)C4CC4)cc3)n2)n[nH]1 [Tozasertib] (partner 0.1 µM)	NCI-H1793	criterion met
O=c1cc(-c2cccc3c2Sc2ccccc2S3)oc(N2CCOCC2)c1 + O=C(CCCCCCC(=O)Nc1ccccc1)NO [Vorinostat] (partner 1 µM)	NCI-H1793	criterion met
COc1nc(C)cnc1NS(=O)(=O)c1cccnc1-c1ccc(-c2nnco2)cc1 [Zibotentan] + O=C(CCCCCCC(=O)Nc1ccccc1)NO [Vorinostat] (partner 1 µM)	NCI-H1793	criterion met
O=c1cc(-c2cccc3c2Sc2ccccc2S3)oc(N2CCOCC2)c1 + COc1cccc2cc(-c3nc([C@H]4CC[C@H](C(=O)O)CC4)n4ncnc(N)c34)[nH]c12 [OSI-027] (partner 0.5 µM)	NCI-H1793	criterion met
COc1nc(C)cnc1NS(=O)(=O)c1cccnc1-c1ccc(-c2nnco2)cc1 [Zibotentan] + C[C@]1(O)C[C@@H](c2nc(-c3ccc4ccc(-c5ccccc5)nc4c3)c3c(N)nccn32)C1 [Linsitinib] (partner 1 µM)	NCI-H1793	criterion not met

// switching to the query compound
Q) Below 0.7 on relative viability? Entry O=c1cc(-c2cccc3c2Sc2ccccc2S3)oc(N2CCOCC2)c1 + CS(=O)(=O)N1CCN(Cc2cc3nc(-c4cccc5[nH]ncc45)nc(N4CCOCC4)c3s2)CC1 [Pictilisib] (partner 1 µM)
A) criterion met
